biological target: Inadl_1, Q8NI35; test: holdup assay; set-up: key: below the threshold = too weak to quantify, mostly under pKd 3.1 to 4; conditions: plain residues with an end cap or a label only (N-terminal biotin on a linker: ado-ado)
Sequence (Q8NI35 113-229): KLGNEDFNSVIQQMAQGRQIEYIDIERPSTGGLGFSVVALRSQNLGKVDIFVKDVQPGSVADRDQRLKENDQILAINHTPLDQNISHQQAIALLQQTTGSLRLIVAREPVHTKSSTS
quantity-measured: pKd

Some entries whose results are on file:
>>> measured_value("PALKNGQYWV [CSPG4, Q6UVK1]")
4.09
>>> measured_value("PDSYHRRDFW [U2AF2, P26368]")
"below the threshold"
>>> measured_value("VISSDDLTEL [CAPN6, Q9Y6Q1]")
"below the threshold"
>>> measured_value("FLVTEFNVML [DFNB31, Q9P202]")
"below the threshold"
>>> measured_value("TNSKQGETTV [FZD1, Q9UP38]")
"below the threshold"

Query: // returns reported pKd for input KSRPENGTVC [TMEM178B, H3BS89]
Reply: below the threshold

Query: Entry IKLETKKTKL [SLC15A2, Q16348] has what pKd?
Reply: below the threshold

Query: # pKd lookup, item AHGSTRDQSI [KCNB1, Q14721]
Reply: below the threshold

Query: # get_value(readout='pKd', item= DLLGGGSDSI [TNRC6B, Q9UPQ9] )
Reply: below the threshold

The origin of these recorded values is paper PMC9482650.
